Hi there, I'd appreciate the recorded apparent KD of K4 kissing-loop reporter for every entry that follows.
- Tested on: K4 kissing-loop RNA reporter
- assay details: apparent KD of K4 kissing-loop reporter; higher = weaker reporter binding
- test parameters: Eterna round: R107; input ligand: FMN 200 uM
One number for each entry, in nM.

// worked examples, apparent KD of K4 kissing-loop reporter included
1. ACGAAGGAUGGAAGGAGCGCUCGUCAGUCCUGCGAGUGAUGUUCGUGGGUAAAUAUUCGCGAGCAGGUAGGUCGCCAUCUUGAAC [Veticeen] = 146
2. GAGGUACAGGCGGCCGCCACUAGUGAUGUUAGUGAUAGAAGAUAUAGUAAAUAUCGGCAUGUAGAUAGGACCGGGCCUGGUGGAG [vvgtcmullin] = 291
3. GUAUGUGAUGGAAACAUCGCAUACACUGAUACCAGUAUCGAUAGAUACCCUUGGCAGCAGAAAACUGCAAUUGGAGUGAUGUUCC [Ex Theophylline A K4 1] = 213
4. UGUUCAAGUGAUGUUUGAGACUAGGUGGAUACCAGCGCAUGCAGUCGCCCUUGGCAGCCAGAAACCAACGCCGCGCGCUUCGGCU [theeternabot_sameState_KL_Theo_A_39] = 342
5. GGUAGCAUGGCGGCCGCCACUGCAAAGCAUAGCUACGGAAACGUAGCUACAGAGUGAUGUUCUGGCAGGACCGGGCCAUGCUACC = 675

For the next question, use this sequence.
Record AAACAUCACUGGGAGUGAUGUUCUCAGUGACGAGGACCGGUACGGCCGCCACUCGCGAGAGAUAUAAAUGAGUAAUGACAUCAUU [Excl Tryptophan A V2] . Reported apparent KD of K4 kissing-loop reporter: 276

###

Exercise: state measured apparent KD of MS2 coat protein for each of the sequences provided.
- System: MS2 coat protein
- assay details: apparent KD of MS2 coat protein, switch OFF state (with FMN for OFF switches, without FMN for ON switches); designed switch direction (-1 OFF switch, 1 ON switch): 1; higher = weaker reporter binding
- test parameters: FMN input: 0 or 200 uM; Eterna round: R93 (includes R88 designs)

Worked examples follow.
1. AAAAAAAAAAGACAGGAUAUACAAUAUAUUACAUGAGGAUCACCCAUGUUUUUUUUUUAAUUAAAGUAGAAGGGUCAAAAAAAAAA [SS 2.1] = 30.3 nM
2. AAUACACAUGAGGAUCACCCAUGUAGAAAGAAGUCAGGAUAUCCGAUCCACAUGUGAUAAGGAGAAGGGACAAUAA [SS 1 Tesla 8] = 95.4 nM
3. GAAAUACAUGAGGAUCACCCAUGUUAGGUGGGUCAAGGAUAUUGAGAUAAAUAAAAAUCUCGAGAAGGUGAAUAAA [JR_SS001_Sub202] = 199 nM
4. AAAAAAAAAAGUCAGGAUAUACAAAUUUUUACAUGAGGAUCACCCAUGUUAAGGAAAAAAAAAAAGUAGAAGGGACAAAAAAAAAA [Same State 2 - Omei 3] = 21.4 nM
5. AAUAAACAUGAGGAUCACCCAUGUAGAAAUAUGGGAGGAUAUACAAAGACGAAAGUCAAAGUAGAAGGCCUAAUAA [Mat - Same State 1 - Mod - D153] = 58.5 nM

Next, consider the following sequence.
The sequence AGAAGACAUGAGGAUCACCCAUGUGGGAUUAUGGGAGGAUAUACAAAGACGAGAGUCAGAGUAGAAGGCCUAGGAA [salish99-ss1-112(!!!!!)] , tested on MS2 coat protein, showed apparent KD of MS2 coat protein of 70.5 nM

###

- Test system: K4 kissing-loop RNA reporter;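 note: bound reporter read as fluorescence of individual clusters on recovered sequencing chips by microscopy, with normalized cluster intensities fitted with a binding model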
- assay details: apparent KD of K4 kissing-loop reporter; higher = weaker reporter binding
- test parameters: Eterna round: R107; input ligand: arginine 13.2 mM
endpoint name: apparent KD of K4 kissing-loop reporter (nM)
One number for each entry, in nM.

Reference set (2 entries):
1) UAGCGUCUGCGAGGAUAUCGGAUUAGAGUGAUGUUCUAAAGACGCCCAGUGAUGUUGGAUGCGAUACGAGAAGGCGCUGGGCGCG [Same State FMN B GF7] = 358
2) ACGUAUAUCAGAGGAUAUCGUAUUAAUAUUUUAUCUAUAUAUUAUAGCAGUGAUGUUGCAAUUAUUCGAGAAGGCUGAUUUACGA [JR_SSFMNB_Sub023] = 170

I have 4 sequences here; please give me apparent KD of K4 kissing-loop reporter for each one.
1. CCCGGGUCGUCAGGAUAUGAGUGCAGUGAUGUUGCACGGGUCUUUGCAGGCCCUGGUGAGGCGUACUCAGAAGGGACGCCAGGUC [Atazazaed]
2. AUUCAUUUCAGAGGAUAUCGCUGGAGAGUGAUGUUCUCCCAUAGUCAGUGAUGUUGGCUAGCUAUGCGAGAAGGCUGUGGGUGGA [Same State FMN B GF 28]
3. UGUACCGAGUCAGGAUAUGGCGUCGAAAGACGAAUUCUAGUGAUGUUAGGGAUCUGCGAAAGCAGUCUAGAAGGGACUUGGUACU [FmnBS 26 U36+U68]
4. AAAGCAGUAUACUGCAAGACCUAUACUGAUACCAGAGUCAAUUGACUCCCUUGGCAGCGGAUCGAGUGAUGUUCGUAAGGUCAAA [AK4.1 SS Theophylline A]

124
396
407
555

###

- Test system: MS2 coat protein
- assay details: apparent KD of MS2 coat protein; higher = weaker reporter binding
- test parameters: Eterna round: R107; input ligand: arginine 13.2 mM
Answer each item with its documented apparent KD of MS2 coat protein.
Numbers only, in nM.

1. ACAUGAGGAUCACCCAUGUAACGGCAUAAUCGAGGACCGGUACGGCCGCCACUCGGAAUCAGUGACAGGCAUAUUUAUUAUAAGA [Eclusion - Tryptophan A / A] = 12
2. ACUAGUUGUGCAGAUACCAGACACGAGGAUCACCCGUGUUUGGGAUGUUCGCAUCUUCCUGUCCCUUGGCAGCUGUACAUCUAGA [Omei Theo B Exc v8] = 15.8
3. CUAUGCAGGUCGGCCGCCACUACACACAUGAGGAUCACCCAUGUAGUUACUGGGUGAAGUGGCAGUAGGACCGGGACCUGCAUAC [Brourdmod10] = 139

For every record below, what is its apparent KD of MS2 coat protein?
1. UGUAUGUGAUUUGAUACCAGACCAGCUGGUGGUACUUGAGGAUCACCCAGGUAGGUUUGGGUCCCUUGGCAGCAAAUCGCAUACU [SS Theo B #24 Ms12]
2. GGUCUCUGGAGCGAUACCAGCUUGAUCGUACUAGCCAGGUACAUGAGGAUCACCCAUGUAAGCCCUUGGCAGCGCUCCAGAGACC [#1 Exclusion - Theophylline B Attempt #9 (HarryS)]
3. GUCCUCGUGUCCGGUUUAGCGCAAAGCGCACGAGGACCGGUACGGCCGCCACUCGAAACAUGAGGAUCACCCAUGUGAAGAAUAA [Design 1]

[293, 8.2, 14.4]

###

- Tested on: MS2 coat protein
- assay details: apparent KD of MS2 coat protein; higher = weaker reporter binding
- test parameters: Eterna round: R107; input ligand: theophylline 2 mM
# cutoff 0.04 µM applies to apparent KD of MS2 coat protein; >= gives 1, < gives 0

1. AGCUCGCAUCCUCUAGCGUCAAAGACGCGUCGAGGACCGGUACGGCCGCCACUCGACGUGAGGAUCACCCACGUCUAAGCGAGCA [TrypAX 10 #SwitchBubble #AlternativeMS2 #MS2Late #CuTurnoff] = 0

Okay, now this sequence:
Is reported apparent KD of MS2 coat protein greater than or equal to 0.04 µM here: AGAGUCAGACAAAAGUCUGGCUCAGCCGAAGGAGCGUCCGAAAGGACAGGUAGGUCGCGGUUACAUGAGGAUCACCCAUGUUCCU [ArgAS 7 #OpenEnded]
1

###

Task for the reader: assign each of the following sequences its reported apparent KD of MS2 coat protein.
- System: MS2 coat protein
- assay details: apparent KD of MS2 coat protein; designed switch direction (-1 OFF switch, 1 ON switch): 1; higher = weaker reporter binding
- test parameters: input ligand: microRNA oligo, concentration not stated
Numbers only, in nM.

Recorded results for 5 sequences are shown here.
1) CGUCGUUUGAUAGGAUAUCGCUUUACAUGAGGAUCGCCCAUGUUUACCACGCUGGUUUUUCUUUCCGAGAAGGAUUCUGAUGUU [salish99_SSNG02_r04_027] (Eterna round: R96, puzzle: Same State NG 2) = 10.5
2) AGCUAUUAAUCAGGAUAUGGUGACAUGAGGAUCACCCAUGUAUAGAUGAUUAAAUGUGGUCUAAACUAGAAGGGAUUACUAACA [SameState NG2 #54] (Eterna round: R96, puzzle: Same State NG 2) = 283
3) UUUUCGAACCGAGGAUAUCCUUAUAAGAAACAUGAGGAUCACCCAUGUAAAGGGAAUUAUUUGUAGGAGAAGGCGGAUUUUGUU [JR_SSNG2_Sub054] (Eterna round: R96, puzzle: Same State NG 2) = 33.9
4) UAUCCAUAGAUAGGAUAUCAGUAUACAUGAGGAUCACCCAUGUUAUAUUUGGUUUUAAUUUAGUCUGAGAAGGAUCUUGAUGAA [SameState NG2 #2] (Eterna round: R96, puzzle: Same State NG 2) = 11.9
5) GUGGUCAGACAUGAGGAUCACCCAUGUGGAAUAAAUAACGUACAGGAUAUGGAAUAUAGGAUAUACUAGAAGGGUAGAUUGGUG (Eterna round: R96, puzzle: Same State NG 3) = 75.3

Report apparent KD of MS2 coat protein for every entry below.
1. GGAGCCGGCCUAGGAUAUUUCAUACAAAAACAUGAGGAUCACCCAUGUAGGCCAGAAGGCCUUGGGAAGAAGGAGGUCGGCUCC [Loop Effect - C25] (Eterna round: R96, puzzle: Same State NG 2)
2. ACAUGAGAGUUAGGAUAUGUUGUACCUACAUGUGACAUGAGGAUCACCCAUGUGGUAAGUAUGAGGCAGAAGGGACAGAUAUGU [Equivalence 46 - Jieux - Same State NG 2] (Eterna round: R96, puzzle: Same State NG 2)
3. GUUUUUAGUGCAGGAUAUGAUCAACAUGAGGAUCACCCAUGUGGCGUUGUGAGUAGGGAGAGAGAUCAGAAGGGCGUCUCCGCG [SS-NG2-LRO13] (Eterna round: R96, puzzle: Same State NG 2)
4. CCAAAUUGAAUCCACAUGAGGAUCACCCAUGUCCAACCGGUCUAGGAUAUCACAGCAAGCGCGUGUGAGAAGGAGAAAACAAGC [Eternabot solution 34] (Eterna round: R96, puzzle: Same State NG 3)

[16.9, 51.7, 37, 21]
